tested on: Caco-2; assay: cell viability relative to DMSO; higher = less toxic; settings: 72 h; 10 nM
READOUT_KIND: cell viability (%)
Field format: number, assumed %, no unit text.

compound="COc1ccc(C(C)(C)C)cc1CN[C@H]1C2CCN(CC2)[C@H]1C(c1ccccc1)c1ccccc1 [maropitant]" value_units=% quantitative_result=96.4
compound="CCNC(=O)[C@H]1O[C@@H](n2cnc3c(N)ncnc32)[C@H](O)[C@@H]1O [NECA]" value_units=% quantitative_result=97.6
compound="O[C@H]1[C@H]2[C@H](O)CCCN2C[C@H]1O [swainsonine]" value_units=% quantitative_result=95.1
compound="O=C(NC(=O)c1c(F)cccc1F)Nc1cc(Cl)c(OC(F)(F)C(F)C(F)(F)F)cc1Cl (stereo not drawn) [lufenuron]" value_units=% quantitative_result=95.1
compound="CN(C)CC(c1ccc(O)cc1)C1(O)CCCCC1 (stereo not drawn) [desvenlafaxine]" value_units=% quantitative_result=102

Prompt: Query the reported cell viability for Caco-2; item: Cc1ccc(S(=O)(=O)N2CCC[C@H]2c2ccc(F)cc2)cc1 [Ro-67-7476]
Response: 102

Prompt: Query the reported cell viability for Caco-2; item: CC[C@@H](C)CNCC(=O)N1CCc2sccc2[C@@H]1COc1cccc(C)c1 [RU-SKI-43]
Response: 103

Prompt: Query the reported cell viability for Caco-2; item: CC(C)[C@H]1C(=O)N[C@@H](CCCNC(=N)N)C(=O)NCC(=O)N[C@@H](CC(=O)O)C(=O)N[C@H](Cc2ccccc2)C(=O)N1C [cilengitide]
Response: 95.4

---

cell viability listing for selected molecules.
system: Vero E6; test: cell viability relative to DMSO; higher = less toxic; details: 72 h; 100 nM
Please answer using a numeric value trailed by its unit.

molecule=O=C(Nc1nc(-c2cc(Cl)cs2)c(N2CCN(C3CCCCC3)CC2)s1)c1cnc(N2CCC(C(=O)O)CC2)c(Cl)c1 result=102%
molecule=O=C(N[C@@H](Cc1c[nH]c2ccccc12)C(=O)O)c1ccc(Cl)cc1 result=98.1%
molecule=Cc1cc(Nc2ncnc3ccc(-c4ccc(CNCCS(C)(=O)=O)o4)cc23)ccc1Oc1ccn2ncnc2c1 result=105%
molecule=CCN(CC)CCOC(=O)C1(C2CCCCC2)CCCCC1 result=98%
molecule=CS(=O)(=O)Nc1ccc(Cc2noc(-c3ccc4[nH]cc(CCN)c4c3)n2)cc1 result=100%

Prompt: Query the reported cell viability for Vero E6; item: c1ccc2sc(N3CCN(Cc4ccc5c(c4)OCO5)CC3)nc2c1 [2-[1-(4-piperonyl)piperazinyl]benzothiazole]
Response: 91.7%

Prompt: Query the reported cell viability for Vero E6; item: COc1ccc2[nH]c([S+]([O-])Cc3ncc(C)c(OC)c3C)nc2c1 (stereo unspecified) [omeprazole]
Response: 102%

Prompt: Query the reported cell viability for Vero E6; item: COc1cc(Br)c(S(=O)(=O)Nc2ccc(C(F)(F)F)c(O[C@@H]3CCN(C)C3)c2)cc1OC
Response: 99%

Prompt: Query the reported cell viability for Vero E6; item: C[C@H]1c2cccc(O)c2C(=O)C2=C(O)[C@]3(O)C(=O)C(C(N)=O)=C(O)[C@@H](N(C)C)[C@@H]3[C@@H](O)[C@@H]21
Response: 101%

Prompt: Query the reported cell viability for Vero E6; item: OCCN1CCN(CCCN2c3ccccc3Sc3ccc(Cl)cc32)CC1
Response: 100%

Prompt: Query the reported cell viability for Vero E6; item: Nc1nc(OCc2ccccc2)c2nc[nH]c2n1
Response: 87.3%

Prompt: Query the reported cell viability for Vero E6; item: CC(=O)OCC(=O)[C@@]1(O)CC[C@H]2[C@@H]3CCC4=CC(=O)CC[C@]4(C)[C@@]3(F)[C@@H](O)C[C@@]21C [FLUDROCORTISONE ACETATE]
Response: 96.5%

---

system: Calu-3; experiment: cell viability relative to DMSO; higher = less toxic; conditions: 72 h; 1 nM
READOUT_KIND: cell viability (%)
Field format: number, assumed %, no unit text.

Look over these answered cases.
compound="NCCNCCNCCN [trientine]" quantitative_result=89
compound="NC1CCN(c2nc3c(cc2F)c(=O)c(C(=O)O)cn3-c2ccc(F)cc2F)C1 (centres undefined) [tosufloxacin]" quantitative_result=95.1
compound=Cn1cc(-c2[nH]c3cc(NC(=O)[C@H](N)C4CCCCC4)cc4c3c2C=NNC4=O)cn1 quantitative_result=109
compound=Cc1ccc2c(=O)c3ccccc3n(CCCN)c2c1C quantitative_result=97.8
compound="CCCCC(=O)OCC(=O)[C@]1(O)Cc2c(O)c3c(c(O)c2[C@@H](O[C@H]2C[C@H](NC(=O)C(F)(F)F)[C@H](O)[C@H](C)O2)C1)C(=O)c1c(OC)cccc1C3=O [valrubicin]" quantitative_result=90.7

Prompt: Using the record for C[C@@H](O[C@H]1OCCN(Cc2n[nH]c(=O)[nH]2)[C@H]1c1ccc(F)cc1)c1cc(C(F)(F)F)cc(C(F)(F)F)c1 [aprepitant] , report its cell viability.
Response: 90.9

Prompt: Using the record for C=C(C)CN1CC[C@]23c4c5ccc(O)c4O[C@H]2c2[nH]c4ccccc4c2C[C@@]3(O)C1C5 [SDM25N] , report its cell viability.
Response: 92.8

Prompt: Using the record for NCCCCCNCC12CC3CC(CC(C3)C1)C2 [IEM1754] , report its cell viability.
Response: 108

Prompt: Using the record for OCC(CO)N[C@H]1C[C@](O)(CO)[C@@H](O)[C@H](O)[C@H]1O [voglibose] , report its cell viability.
Response: 97.8

---

tested on: HepG2; experiment: drug sensitivity score (DSS) for viability; higher = more toxic; extreme values may be limits of the assay; settings: 72 h
READOUT_KIND: drug sensitivity score
The reply should be a number, written without any unit.

molecule=OCCN1CCN(CCCN2c3ccccc3Sc3ccc(Cl)cc32)CC1 measurement_target=HepG2 quantitative_result=2.7
molecule="OCCNC1CCCc2c1[nH]c1ccc(-c3ccccc3)cc21 (stereo not drawn)" measurement_target=HepG2 quantitative_result=3.4
molecule=Cc1c(-c2ccc(O)cc2)n(Cc2ccc(OCCN3CCCCCC3)cc2)c2ccc(O)cc12 measurement_target=HepG2 quantitative_result=5.1
molecule=Cc1ccc2c(=O)c3ccccc3n(CCCN)c2c1C measurement_target=HepG2 quantitative_result=12.4

// moving on: another record for drug sensitivity score
Prompt: Query the reported drug sensitivity score for HepG2; item: C[C@@H]1CCCN1CCc1cc2cc(-c3ccc(C#N)cc3)ccc2o1
Response: 1.4

---

tested on: HepG2; assay: cell viability relative to DMSO; higher = less toxic; conditions: 72 h; 1000 nM
READOUT_KIND: cell viability (%)
Field format: number, assumed %, no unit text.

Look over these answered cases.
compound=CC(C)C[C@@H](N)C(=O)N[C@H]1C(=O)N[C@@H](CC(N)=O)C(=O)N[C@H]2C(=O)N[C@H]3C(=O)N[C@H](C(=O)N[C@H](C(=O)O)c4cc(O)cc(O)c4-c4cc3ccc4O)[C@H](O)c3ccc(c(Cl)c3)Oc3cc2cc(c3O[C@@H]2O[C@H](CO)[C@@H](O)[C@H](O)[C@H]2O[C@H]2C[C@](C)(N)[C@H](O)[C@H](C)O2)Oc2ccc(cc2Cl)[C@H]1O readout_kind="cell viability" quantitative_result=86.9
compound=C[C@@H](Oc1ccc(Cl)cc1)c1ccnc2ncnn12 readout_kind="cell viability" quantitative_result=96.3
compound="NC(=O)c1ccc[n+]([C@@H]2O[C@H](COP(=O)([O-])OP(=O)(O)OC[C@H]3O[C@@H](n4cnc5c(N)ncnc54)[C@H](O)[C@@H]3O)[C@@H](O)[C@H]2O)c1 [nadide]" readout_kind="cell viability" quantitative_result=99.2
compound=CCN(CC)CCOC(=O)C1(C2CCCCC2)CCCCC1 readout_kind="cell viability" quantitative_result=98.7
compound=COc1ccccc1N1CCN(CCN2C(=O)c3ccccc3C(C)(C)C2=O)CC1 readout_kind="cell viability" quantitative_result=102

Prompt: Using the record for OCc1cccnc1 [nicotinyl-alcohol-tartrate] , report its cell viability.
Response: 104

---

system: HepG2; assay: cell viability relative to DMSO; higher = less toxic; conditions: 72 h; 10 nM
cell viability listing for selected compounds.
Field format: number, assumed %, no unit text.

Look over these answered cases.
compound="CCS(=O)(=O)N1CCC([C@@H](C)n2c(C)c(C(=O)NCc3c(OC)cc(C)[nH]c3=O)c3ccccc32)CC1 [CPI-169]" measurement_target=HepG2 quantitative_result=103
compound="CSc1ccc(C(=O)/C=C/c2cc(C)c(OC(C)(C)C(=O)O)c(C)c2)cc1 [elafibranor]" measurement_target=HepG2 quantitative_result=108
compound="C[C@H]1c2cccc(O)c2C(=O)C2=C(O)[C@]3(O)C(=O)C(C(N)=O)=C(O)[C@@H](N(C)C)[C@@H]3[C@@H](O)[C@@H]21 [doxycycline]" measurement_target=HepG2 quantitative_result=94.3

Prompt: Using the record for CC(N)Cc1c[nH]c2ccc(OCc3cccs3)cc12 (stereo unspecified) [BW-723C86] , report its cell viability.
Response: 107

Prompt: Using the record for NC[C@H]1O[C@H](O[C@H]2[C@H](O)[C@@H](O[C@H]3O[C@H](CO)[C@@H](O)[C@H](N)[C@H]3O)[C@H](N)C[C@@H]2N)[C@H](O)[C@@H](O)[C@@H]1O [kanamycin] , report its cell viability.
Response: 88.9

Prompt: Using the record for COc1ccc2cc1Oc1ccc(cc1)C[C@H]1c3c(cc4c(c3Oc3cc5c(cc3OC)CCN(C)[C@@H]5C2)OCO4)CCN1C [cepharanthine] , report its cell viability.
Response: 87.8
